# assayTarget: Cytochrome P450 3A4 (Homo sapiens) (UniProt P08684)
# Sequence (P08684 whole entry, looked up): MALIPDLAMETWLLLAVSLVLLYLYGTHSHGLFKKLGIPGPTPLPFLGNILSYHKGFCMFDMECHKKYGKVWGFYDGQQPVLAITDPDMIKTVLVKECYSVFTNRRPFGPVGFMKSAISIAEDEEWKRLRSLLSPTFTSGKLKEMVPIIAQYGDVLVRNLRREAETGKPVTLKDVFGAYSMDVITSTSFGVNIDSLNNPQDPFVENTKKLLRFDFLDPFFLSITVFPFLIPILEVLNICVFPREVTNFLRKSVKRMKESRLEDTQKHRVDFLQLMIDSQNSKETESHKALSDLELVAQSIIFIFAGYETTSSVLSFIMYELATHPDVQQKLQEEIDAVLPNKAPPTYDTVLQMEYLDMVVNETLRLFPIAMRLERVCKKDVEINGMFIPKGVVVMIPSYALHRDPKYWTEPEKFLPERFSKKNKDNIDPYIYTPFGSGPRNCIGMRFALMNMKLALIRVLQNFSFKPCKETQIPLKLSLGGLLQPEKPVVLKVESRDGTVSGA
# methodNotes: qHTS Assay for Inhibitors and Substrates of Cytochrome P450 3A4 (AID 884); also: nearly all actives have a fitted effect of over 50% in size
# conditionsUsed: recombinant CYP3A4, Luciferin-PPXE luminescence; series mostly up to 57.1 µM
Inconclusive results are not listed. The source made the active and inactive calls. Calls follow the shape of the dose curve; as a rule, active = well fitted inhibition curve with a large enough effect; inconclusive = small, poorly fitted or top-dose-only effect; inactive = no such curve, though single readings can be large or run the other way.
Outcomes: active, inactive

>>> answerlabel("CCC(C(N)=O)c1ccccc1 (centres undefined)")
"inactive"
>>> answerlabel("O=C/C=C/c1ccc(O)cc1")
"inactive"
>>> answerlabel("C[C@@H](C(=O)O)c1ccc(N2Cc3ccccc3C2=O)cc1")
"inactive"
>>> answerlabel("COC(=O)CC1C(C)(C)C(OC(C)=O)C2CC3C4CC(=O)OC(c5ccoc5)[C@]4(C)CCC3[C@@]1(C)C2=O (some centres undefined)")
"active"
